Hello, the source for this data is the supplement of paper PMC11616607, in case you need it.

Reported drug sensitivity score values for a set of compounds
Test system: JHOS2
TEST_METHOD_NOTES: drug sensitivity score (DSS) from 5-point dose-response viability curve (DSS (area-under-curve based score)); higher = more sensitive (stronger growth inhibition or killing); extreme values may be limits of the assay
MEASUREMENT_PARAMETERS: exposure time: 72 h; concentration range: 5 concentrations over 10,000-fold range
The answer should be a number; do not append a unit.

Look over these answered cases.
CO[C@H]1C(=O)[C@]2(C)[C@@H](OC)C[C@H]3OC[C@@]3(OC(C)=O)[C@H]2[C@H](OC(=O)c2ccccc2)[C@]2(O)C[C@H](OC(=O)[C@H](O)[C@@H](NC(=O)OC(C)(C)C)c3ccccc3)C(C)=C1C2(C)C [Cabazitaxel]	12.8
CN(C(=O)c1ccc(F)cc1C(F)(F)F)C1CCN(c2nnc(-c3ccnn3C)c3ccccc23)CC1 [Taladegib]	0
CON(C)C(=O)N1N=C(c2cc(F)ccc2F)S[C@@]1(CCCN)c1ccccc1 [Filanesib]	7.4

Read the next record carefully.
## Task I am curious: what drug sensitivity score value has been reported for COc1cc2c(Nc3ccc(Cl)c(Cl)c3F)ncnc2cc1OC[C@@H]1C[C@@H]2CN(C)C[C@@H]2C1 [Tesevatinib] ?
## Result 0.1

---

Tested on: HOSE2C
TEST_METHOD_NOTES: drug sensitivity score (DSS) from 5-point dose-response viability curve (DSS (area-under-curve based score)); higher = more sensitive (stronger growth inhibition or killing); extreme values may be limits of the assay
MEASUREMENT_PARAMETERS: exposure time: 72 h; concentration range: 5 concentrations over 10,000-fold range
# label = Yes if drug sensitivity score >= 1 else No

## Task Could you tell me if the measured drug sensitivity score of CC1(C)CC[C@]2(NC(=O)C(C)(F)F)CC[C@]3(C)[C@H](C(=O)C=C4[C@@]5(C)C=C(C#N)C(=O)C(C)(C)[C@@H]5CC[C@]43C)[C@@H]2C1 [Omaveloxolone] reaches 1 or more?
## Result Yes

## Task // same read-out, input: Cn1cc(C2=Nc3cc(NC(=O)C(N)C4CCCCC4)cc4c3C2=CNNC4=O)cn1 (configuration not stated)
## Result Yes

## Task // same read-out, input: Cc1cn(-c2cc(NC(=O)c3ccc(C)c(Nc4nccc(-c5cccnc5)n4)c3)cc(C(F)(F)F)c2)cn1 [Nilotinib]
## Result No

---

Reported drug sensitivity score values for a set of molecules
System: Kuramochi
TEST_METHOD_NOTES: drug sensitivity score (DSS) from 5-point dose-response viability curve (DSS (area-under-curve based score)); higher = more sensitive (stronger growth inhibition or killing); extreme values may be limits of the assay
MEASUREMENT_PARAMETERS: exposure time: 72 h; concentration range: 5 concentrations over 10,000-fold range
The answer should be a number; do not append a unit.

Look over these answered cases.
CC#CC(=O)N1CC[C@@H](n2c(=O)n(-c3ccc(Oc4ccccc4)cc3)c3c(N)ncnc32)C1 [Tirabrutinib]	1.3
CNC(=O)c1cc(Oc2ccc(NC(=O)Nc3ccc(Cl)c(C(F)(F)F)c3)cc2)ccn1 [Sorafenib]	0
O=C(NOC[C@H](O)CO)c1ccc(F)c(F)c1Nc1ccc(I)cc1F	5.2

Read the next record carefully.
## Task I am curious: what drug sensitivity score value has been reported for Cc1ccc(-c2cc(C(F)(F)F)nn2-c2ccc(S(N)(=O)=O)cc2)cc1 [Celecoxib] ?
## Result 0
